Would you mind telling me the reported Kd of each entry?
- Target Or Test System: T1, Rhesus macaque CD4-HIS (Acro Biosystems, Cat. CD4-C52H7) (rhesus macaque, UniProt P16003 26-390)
- T1 construct: Bought reagent; also called Rhesus CD4; rhesus CD4-HIS; not shown: His tag
- T1 sequence (P16003 26-390 limits assumed): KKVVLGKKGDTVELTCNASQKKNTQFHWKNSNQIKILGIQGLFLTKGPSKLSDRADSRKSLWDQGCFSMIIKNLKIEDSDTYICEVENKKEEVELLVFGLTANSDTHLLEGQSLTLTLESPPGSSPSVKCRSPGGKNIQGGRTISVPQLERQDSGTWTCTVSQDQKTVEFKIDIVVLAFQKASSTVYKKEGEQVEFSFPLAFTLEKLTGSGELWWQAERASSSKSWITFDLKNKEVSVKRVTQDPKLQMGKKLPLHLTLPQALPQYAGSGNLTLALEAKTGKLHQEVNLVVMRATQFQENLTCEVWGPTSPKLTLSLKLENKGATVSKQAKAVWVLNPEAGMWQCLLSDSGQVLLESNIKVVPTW
- Protocol: BLI Octet, mAb on anti-mouse Fc sensor, rhesus CD4-HIS 25-100 nM, 1:1 global fit;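 also: purified antibodies captured at 10 µg/mL, rhesus CD4 analyte run as a three-concentration serial dilution, irrelevant antibody as reference control, one kinetic constant set per antibody from global fitting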
Give the value, in units of nM, as a plain number.

What Kd value was documented for this binder, 75110_03B16A (antibody, V domains shown, Tested as antibody purified from AlivaMab Mouse hybridoma supernatant (captured by anti-mouse IgG Fc)) VH: EVQLVESGGGLVQPGGSLRLSCAASGFTFSSYWMSWVRQAPGKGLEWVANINEDGSEKNYVDSVKGRFTISRDNAKNSLCLQLNSLRAEDTAVYHCAREGGQWLALDYWGQGTLVTVSS VL: DIQMTQSPSSVSASVGDRVNITCRASQGIRSWLAWYQQKPGKTPKLLICGASSLQSGVPSRFSGSGSGTDFTLTISSLQPEDFATYYCQQANSFPWTFGQGTTVEIK ?
23

Entry 75110_03D16A (antibody, V domains shown, Tested as antibody purified from AlivaMab Mouse hybridoma supernatant (captured by anti-mouse IgG Fc)) VH: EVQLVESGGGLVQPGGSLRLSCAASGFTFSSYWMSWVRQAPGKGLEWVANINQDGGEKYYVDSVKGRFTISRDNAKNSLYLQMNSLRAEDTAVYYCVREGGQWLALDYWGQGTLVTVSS VL: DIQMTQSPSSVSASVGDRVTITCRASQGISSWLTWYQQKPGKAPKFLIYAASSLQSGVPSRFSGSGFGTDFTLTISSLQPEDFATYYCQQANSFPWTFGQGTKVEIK please
12

Entry 75110_03I08A (antibody, V domains shown, Tested as antibody purified from AlivaMab Mouse hybridoma supernatant (captured by anti-mouse IgG Fc)) VH: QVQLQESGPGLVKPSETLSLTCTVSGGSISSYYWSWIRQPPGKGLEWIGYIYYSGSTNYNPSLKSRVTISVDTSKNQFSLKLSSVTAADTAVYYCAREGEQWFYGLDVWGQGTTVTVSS VL: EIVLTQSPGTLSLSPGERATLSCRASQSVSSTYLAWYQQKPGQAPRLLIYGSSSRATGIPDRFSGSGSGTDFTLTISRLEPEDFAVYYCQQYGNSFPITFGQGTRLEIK please
6.1
